ASSAY_SYSTEM: NH(3)-dependent NAD(+) synthetase (Bacillus subtilis (strain 168))
Sequence (P08164 whole entry): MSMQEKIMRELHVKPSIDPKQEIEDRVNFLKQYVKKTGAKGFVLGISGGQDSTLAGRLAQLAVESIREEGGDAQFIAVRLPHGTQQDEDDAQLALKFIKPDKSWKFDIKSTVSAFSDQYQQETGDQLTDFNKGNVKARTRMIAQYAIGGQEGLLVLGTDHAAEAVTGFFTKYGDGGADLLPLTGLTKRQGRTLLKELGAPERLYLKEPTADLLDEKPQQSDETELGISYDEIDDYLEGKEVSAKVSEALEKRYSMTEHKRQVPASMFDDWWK
TEST_PROTOCOL: Inhibitory activity against Bacillus subtilis NAD synthetase
pIC50: −log10 of the molar value.
Outcome: TRUE for pIC50 of at least 4; FALSE for anything lower.

- COMPOUND_STRUCTURE_STRING: "C[N+](C)(C)c1ccc(CC(=O)OCCCCCCCCn2ccc3cc(OCc4ccccc4)ccc32)cc1"
  CATEGORY_LABEL: "TRUE"
- COMPOUND_STRUCTURE_STRING: "COC(=O)c1cc2ccccc2n1CCCCCCCOC(=O)c1ccc[n+](C)c1"
  CATEGORY_LABEL: "TRUE"
- COMPOUND_STRUCTURE_STRING: "C[n+]1cccc(C(=O)OCCCCCn2ccc3cc([N+](=O)[O-])ccc32)c1"
  CATEGORY_LABEL: "FALSE"
- COMPOUND_STRUCTURE_STRING: "C[n+]1cccc(C(=O)OCCCCCCn2ccc3cc(OCc4ccccc4)ccc32)c1"
  CATEGORY_LABEL: "TRUE"
- COMPOUND_STRUCTURE_STRING: "COC(=O)c1cc2cc(OCc3ccccc3)ccc2n1CCCCCCCOC(=O)c1ccc[n+](C)c1"
  CATEGORY_LABEL: "TRUE"
- COMPOUND_STRUCTURE_STRING: "O=C(OCCCCCCn1ccc2cc([N+](=O)[O-])ccc21)c1cccnc1"
  CATEGORY_LABEL: "FALSE"
- COMPOUND_STRUCTURE_STRING: "C[N+](C)(C)c1ccc(CC(=O)OCCCCCCCCCn2ccc3ccccc32)cc1"
  CATEGORY_LABEL: "TRUE"
- COMPOUND_STRUCTURE_STRING: "COC(=O)c1cc2cc(OCc3ccccc3)ccc2n1CCCCCCCCOC(=O)Cc1ccc([N+](C)(C)C)cc1"
  CATEGORY_LABEL: "TRUE"
